Just for reference, patent US20180244785A1 is where these values come from.

molecular target: FGFR1 on tumour cells (UniProt P11362 22-822); assay: cell-based or functional assay
Sequence (P11362 22-822): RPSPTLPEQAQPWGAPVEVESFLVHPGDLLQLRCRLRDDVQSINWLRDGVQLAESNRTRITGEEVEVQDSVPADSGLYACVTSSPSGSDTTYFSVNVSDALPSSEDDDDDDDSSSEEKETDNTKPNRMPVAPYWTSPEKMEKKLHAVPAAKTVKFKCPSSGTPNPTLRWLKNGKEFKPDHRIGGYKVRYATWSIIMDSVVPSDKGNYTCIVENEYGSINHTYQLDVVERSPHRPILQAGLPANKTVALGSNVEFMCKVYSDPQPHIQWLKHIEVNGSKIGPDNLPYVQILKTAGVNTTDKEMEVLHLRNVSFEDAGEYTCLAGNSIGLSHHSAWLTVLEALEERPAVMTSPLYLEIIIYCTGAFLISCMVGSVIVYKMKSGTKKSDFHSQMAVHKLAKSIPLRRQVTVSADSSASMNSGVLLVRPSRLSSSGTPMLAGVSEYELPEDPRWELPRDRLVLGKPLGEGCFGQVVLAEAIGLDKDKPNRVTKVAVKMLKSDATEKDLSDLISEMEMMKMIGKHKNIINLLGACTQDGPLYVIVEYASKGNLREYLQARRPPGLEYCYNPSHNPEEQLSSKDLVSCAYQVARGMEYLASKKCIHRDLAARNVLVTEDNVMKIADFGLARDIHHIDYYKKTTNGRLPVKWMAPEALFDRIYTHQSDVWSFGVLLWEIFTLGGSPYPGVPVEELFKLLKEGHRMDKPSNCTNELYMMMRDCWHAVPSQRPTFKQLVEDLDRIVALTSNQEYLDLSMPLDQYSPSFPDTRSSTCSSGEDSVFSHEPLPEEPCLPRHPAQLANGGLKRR
parameter measured: IC50 of pERK inhibition (AlphaScreen SureFire) in NCI-H1581 cells (nM)

binder	number
Ab16 (antibody, human IgG2, kappa, V domains shown, format in the assays not spelled out) VH: EVQLLESGGGVVQPGRSLRLSCAASGFTFSSYAMHWVRQAPGKGLEWVAVISYDGSNKYYADSVKGRFTISRDNSKNTLSLQMNSLRVEDTAIYYCVRGAGRGYTRGPDGFDIWGQGTMVTVSS VL: DIVMTQTPLSLSVTPGQPASISCKSSRSLLHSDGKTYVYWYVQKSGQPPQLLIYELSNRFSGVPDRFSGSGSRTDFTLKISRVEAEDVGVYYCMQYIEAPLTFGGGTKVEIKR	3.88
Ab31 (antibody, human IgG2, kappa, V domains shown, format in the assays not spelled out) VH: EVQLLESGGGVVQPGRSLRLSCAASGFTFSSYAMHWVRQAPGKGLEWVAVISYDGSNKYYADSVKGRFTISRDNSKNTLSLQMNSLRVEDTAIYYCVRGAGRGLTYGPDGFDIWGQGTMVTVSS VL: DIVMTQTPLSLSVTPGQPASISCTSSRSLLHSDGKTYVYWYVQKSGQPPQLLIYELSNRFSGVPDRFSGSGSRTDFTLKISRVEAEDVGVYYCMQYVEAPLTFGGGTKVEIKR	2.72
